- Tested on: specimen of rat aorta
- Experimental Details: Vasorelaxation activity in a specimen of rat aorta: contraction caused by KCl
- Test Settings: 1 μM, read-out: constriction inhibitory ratio
Result Type: inhibition at 1 µM (%)
Form entry: value (%) — number only.

Q: What value of measured inhibition at 1 µM is listed for `CCOc1cc(O)c(/C(=N/OC(C)(C)C)c2ncccc2O)cc1Cl` ?
A: 18

Q: Moving on to `CC(C)(C)O/N=C(/c1cc(Cl)c(F)cc1O)c1c(O)ccc[n+]1[O-]`
A: 0

Q: Also need `CC(C)(C)O/N=C(/c1cc(Br)c(Cl)cc1O)c1cccc[n+]1[O-]` , thanks.
A: 3

Q: `CC(C)(C)O/N=C(/c1cc(Cl)c(C#N)cc1O)c1c(O)ccc[n+]1[O-]` , same question.
A: 4

* * *

- Tested on: specimen of rat aorta
- Experimental Details: Vasorelaxation activity in a specimen of rat aorta: contraction caused by TEA and BaCl2
- Test Settings: TEA (30-45 mM) and BaCl2 (0.3 mM) contraction, 3 μM, read-out: constriction inhibitory ratio
Result Type: inhibition at 3 µM (%)
Give your result in % as a bare value.

Q: Fill in the blank: the reported inhibition at 3 µM of Cc1cc(O)c(/C(=N/OC(C)(C)C)c2ncccc2O)cc1Br [Compound 61] is ____.
A: 100

Q: Same thing, different compound: COc1cc(O)c(/C(=N/OC(C)(C)C)c2c(O)ccc[n+]2[O-])cc1Br [Compound 121]
A: 57

Q: # repeat for CC(C)(C)O/N=C(/c1cc(F)c(F)cc1O)c1ncccc1O [Compound 34]
A: 59

Q: Please answer likewise for CC(C)(C)O/N=C(/c1cc(Cl)ccc1O)c1c(O)ccc[n+]1[O-] [Compound 123]
A: 52

Q: # iterate: Cc1cc(O)c(/C(=N/OC(C)(C)C)c2ncccc2O)cc1F [Compound 114]
A: 89

Q: Same question for CC(C)(C)O/N=C(/c1ccc(F)cc1O)c1ncccc1O [Compound 30] please.
A: 50

Q: Entry CC(C)(C)O/N=C(/c1cc(F)c(Cl)cc1O)c1ncccc1O [Compound 40] please
A: 72

Q: What about Cc1cc(/C(=N/OC(C)(C)C)c2ncccc2O)c(O)cc1F [Compound 111] ?
A: 92

Q: Lookup CC(C)(C)O/N=C(/c1cc(Br)ccc1O)c1cccc[n+]1[O-] [Compound 89]
A: 55

* * *

- Test system: anesthetized dogs
- Experimental Details: Action of increasing coronary blood flow in anesthetized dogs (administration into coronary artery)
- Type: in vivo, dog
- Test Settings: injected into coronary artery, 30 ug/day, anesthetized Beagle dogs
Please respond with reported duration (T1/2): time in which the activity is reduced to half for every item in the list.
Answer format: value, then unit.

Q: Give recorded duration (T1/2): time in which the activity is reduced to half with anesthetized dogs for the following compound: `CC(C)(C)O/N=C(/c1cc(F)c(F)cc1O)c1cccc[n+]1[O-]`
A: 3.3 min

Q: Then `CC(C)(C)O/N=C(/c1cc(Cl)c(Cl)cc1O)c1cccc[n+]1[O-]` ?
A: 4.0 min

Q: Consider next the compound `CC(C)(C)O/N=C(/c1cc(Br)ccc1O)c1c(O)ccc[n+]1[O-]` in the same way.
A: 2.4 min

Q: Now consider `Cc1ccc(O)c(/C(=N/OC(C)(C)C)c2ncccc2O)c1` .
A: 1.2 min

Q: What would you report for `CC(C)(C)O/N=C(/c1cc(C#N)c(Cl)cc1O)c1ncccc1O` ?
A: 4.4 min

Q: Next compound: `Cc1cc(O)c(/C(=N/OC(C)(C)C)c2ncccc2O)cc1Br`
A: 2.0 min

Q: Now the same for `CC(C)(C)O/N=C(/c1cc([N+](=O)[O-])ccc1O)c1ncccc1O`
A: 2.1 min

Q: Repeat for the following compound: `CC(C)(C)O/N=C(/c1cc(Br)ccc1O)c1ncccc1O`
A: 1.5 min

Q: How about `CC(C)(C)C/N=C(/c1cc(Br)ccc1O)c1cccc[n+]1[O-]` ?
A: 2.9 min

Q: Next entry: `CC(C)(C)O/N=C(/c1cc(Cl)c(Cl)cc1O)c1ncccc1O`
A: 3.0 min

Q: What do you have for `CC(C)(C)O/N=C(/c1cc(F)c(Cl)cc1O)c1c(O)ccc[n+]1[O-]` ?
A: 27.3 min

Q: What do we get for `Cc1cc(O)c(/C(=N/OC(C)(C)C)c2c(O)ccc[n+]2[O-])cc1Br` ?
A: 8.9 min

Q: Another: `CC(C)(C)ON=C(c1cc(Cl)ccc1O)c1ncccc1O`
A: 1.6 min

Q: Okay, and `CC(C)(C)O/N=C(/c1cc(Cl)c(F)cc1O)c1c(O)ccc[n+]1[O-]` ?
A: 47.7 min

Q: Try this compound too: `CC(C)(C)O/N=C(/c1cc(F)c(F)cc1O)c1c(O)ccc[n+]1[O-]`
A: 15.1 min

Q: Next: `CC(C)(C)O/N=C(/c1cc(F)c(Cl)cc1O)c1ncccc1O`
A: 2.8 min

Q: Would you kindly repeat that for `CC(C)(C)O/N=C(/c1cc(Br)c(C#N)cc1O)c1ncccc1O` ?
A: 6.2 min

Q: Same thing, different compound: `CC(C)(C)O/N=C(/c1cc(Br)c(Cl)cc1O)c1ncccc1O`
A: 4.7 min

Q: Follow-up entry: `CC(C)(C)O/N=C(/c1cc(F)c(Cl)cc1O)c1cccc[n+]1[O-]`
A: 3.0 min

Q: // next record `CC(C)(C)O/N=C(/c1cc(F)c(F)cc1O)c1ncccc1O`
A: 3.7 min
